50% Neutralization ARPE overview
# subject.of.test: hCMV UL130 + UL131A (co-expressed in HEK293T cells) (human cytomegalovirus, UniProt P16772 1-214; F5HET4 19-129)
# measurement.protocol: cell-based or functional assay

binder	50% Neutralization ARPE
10P3 (antibody, V domains shown) VH: EVQLVESGGGLVRPGGSLRLSCAASGFTFHNYRMNWVRQAPGKGLEWVANIKQDGSEKSYVDSVRGRFTTSRDNSKNSLYLQINSLRAEDTAVYYCARGEGYTYGVVYSYSAMDVWGQGTTVIVSS VL: SYELTQPPSVSVSPGQTARITCSGNVLPNQYASWYQQKPGQAPVLVIYKDTERPSGIPGRFSGSSSGTTVTLTISGVQAEDEADYYCQSADSSGADYVFGTGTKVTVL	< 0.001 µg/mL
4I22 (antibody, V domains shown) VH: QVQLVESGGGVVQPGRSLRLSCVASGFTFSSYAMHWVRQAPGKGLEWVAVISYDGDNKFYADSVKGRFRISRDTSKNTLYLEMNSLRAADTAIYYCAREELVGLMPPYYNYGLDVWGQGTTVTVSS VL: QSVLTQPPSVSAAPGQKVTISCSGSNSNIGNNYVSWYQQLPGRAPKLLIYDNDHRPSGIPDRFSGSKSGTSATLVITGLQTGDEADYYCETWDTSLSAAVVFGGGTKLTVL	< 0.01 µg/mL
10F7 (antibody, V domains shown) VH: EVQLVESGGGLVQPGRSLRLSCTASGFTFGDYAMSWFRQAPGKGLEWVGFIRSKAYGGTTEYAASVKGRFTISRDDSKSIAYLQMNSLKTEDTAVYYCTRASSLLWLLNPQPNFDYWGQGTLVTVSS VL: SYVLTQPPSVSVAPGQTARITCGGNNIGSNNVHWYQQKPGQAPVLVVYDDSDRPSGIPERFSGSNSGNTATLTISRVEAGDEADYYCQVWDSSSDHPVFGGGTKLTVL	< 0.01 µg/mL

The reported measurements were obtained from patent US20170129940A1.
